Origin of the recorded values: patent US20190308988A1

testName: Polymorph screening of solid state drug substances (Table 23)
Format: physicochemical
settings: MTBE, stirred 50 °C 72 hours, dried solid
measurementLabel: Dry method and appearance

>  <compound>
C=C1CC[C@@]2(O)C3Cc4ccc(OC(=O)NC(C)(C)C)c5c4[C@@]2(CCN3CC2CC2)[C@H]1O5 [Compound 40]

>  <result>
Evaporation/white powder

$$$$
>  <compound>
C=C1CC[C@@]2(O)C3Cc4ccc(OC(=O)CCCCCCCCCCCCCCCCCCCCC)c5c4[C@@]2(CCN3CC2CC2)[C@H]1O5 [Compound 14]

>  <result>
Evaporation/white powder

$$$$
>  <compound>
C=C1CC[C@@]2(O)C3Cc4ccc(OC(=O)OCCCCCCCCCCCCCCCC)c5c4[C@@]2(CCN3CC2CC2)[C@H]1O5 [Compound 19]

>  <result>
Evaporation/white powder

$$$$

---

testName: Solubility determination in oil (Table 10)
settings: 25 °C, oil or lipid, thermodynamic from solid, Approximate Solubility in Excipient: Sesame oil, Heating Temp. 60 °C, Obs. Temp. 25 °C
Measured solubility at 24 h, listed per entry.

>  <smilesCode>
C=C1CC[C@@]2(O)C3Cc4ccc(OCOC(=O)CCCCCCCCCCCCC)c5c4[C@@]2(CCN3CC2CC2)[C@H]1O5

>  <result>
267 to 288 mg/mL

$$$$

molecule `CCCCCCCCCCCCCCCCCC(=O)Oc1ccc2c3c1O[C@H]1C(=O)CC[C@@]4(O)C(C2)N(CC2CC2)CC[C@]314` , solubility at 24 h observed: < 50 mg/mL

Looking up `C=C1CC[C@@]2(O)C3Cc4ccc(OCOC(=O)CCCCCCCCCCC)c5c4[C@@]2(CCN3CC2CC2)[C@H]1O5` , I found its solubility at 24 h recorded as 208 to 231 mg/mL

The measured solubility at 24 h associated with `CCCCCCCCCCCCCCCCCCCCCC(=O)Oc1ccc2c3c1O[C@H]1C(=O)CC[C@@]4(O)C(C2)N(CC2CC2)CC[C@]314` reads < 46 mg/mL

Short answer for `C=C1CC[C@@]2(O)C3Cc4ccc(OCOC(=O)CCCCCCCCCCCCCCC)c5c4[C@@]2(CCN3CC2CC2)[C@H]1O5` : solubility at 24 h was 202 to 269 mg/mL

---

testName: Solubility determination in oil (Table 10)
settings: 40 °C, oil or lipid, thermodynamic from solid, Approximate Solubility in Excipient: Sesame oil, Heating Temp. 40 °C, Obs. Temp. 40 °C
measurementLabel: solubility

Examples with answers:
>  <smilesCode>
C=C1CC[C@@]2(O)C3Cc4ccc(OC(=O)OCCCCCCCCCCCCCCCC)c5c4[C@@]2(CCN3CC2CC2)[C@H]1O5

>  <solubility>
103 to 137 mg/mL

$$$$
>  <smilesCode>
C=C1CC[C@@]2(O)C3Cc4ccc(OC(=O)OCCCCCCCCCC)c5c4[C@@]2(CCN3CC2CC2)[C@H]1O5

>  <solubility>
> 403 mg/mL

$$$$
>  <smilesCode>
O=C(CCC1CCCC1)Oc1ccc2c3c1O[C@H]1C(=O)CC[C@@]4(O)C(C2)N(CC2CC2)CC[C@]314

>  <solubility>
< 50 mg/mL

$$$$
>  <smilesCode>
C=C1CC[C@@]2(O)C3Cc4ccc(OC(=O)CCCCCCCCCCCCCCCCCCCCC)c5c4[C@@]2(CCN3CC2CC2)[C@H]1O5

>  <solubility>
< 51 mg/mL

$$$$

In the following, a different compound is considered.
solubility reading for `CCCCCCCCCCCCOC(=O)Oc1ccc2c3c1O[C@H]1C(=O)CC[C@@]4(O)C(C2)N(CC2CC2)CC[C@]314` : > 407 mg/mL
